MEASUREMENT TARGET: T1, human ferroportin 1 (human, UniProt Q9NP59 1-571)
T1 construct: also called human FPN1; FPN1
T1 sequence: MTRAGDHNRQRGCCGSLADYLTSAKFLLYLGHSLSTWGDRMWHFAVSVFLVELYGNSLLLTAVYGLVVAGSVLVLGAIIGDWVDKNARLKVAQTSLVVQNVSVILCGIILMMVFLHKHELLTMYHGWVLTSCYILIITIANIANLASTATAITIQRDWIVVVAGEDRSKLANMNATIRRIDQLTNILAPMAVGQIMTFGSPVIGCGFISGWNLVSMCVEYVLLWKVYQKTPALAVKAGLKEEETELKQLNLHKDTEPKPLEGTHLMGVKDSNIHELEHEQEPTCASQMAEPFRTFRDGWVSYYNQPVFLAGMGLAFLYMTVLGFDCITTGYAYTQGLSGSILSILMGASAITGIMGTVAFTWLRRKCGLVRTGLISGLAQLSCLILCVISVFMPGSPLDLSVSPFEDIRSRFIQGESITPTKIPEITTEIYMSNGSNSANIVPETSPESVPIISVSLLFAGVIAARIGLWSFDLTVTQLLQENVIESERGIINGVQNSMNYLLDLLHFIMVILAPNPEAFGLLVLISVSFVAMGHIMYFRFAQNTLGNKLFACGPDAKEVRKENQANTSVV
METHOD SUMMARY: inhibition of binding of 30 nM biotinylated hepcidin to FPN/293 cells, ELISA of lysate; antibody at 125 nM; mean
# Lookup of reported % Inhibition keyed by entry
TEST READOUT: % Inhibition

[[record]]
binder = "Mab Combi11 (antibody, human IgG4 S228P, kappa, F234A L235A, V domains shown) VH: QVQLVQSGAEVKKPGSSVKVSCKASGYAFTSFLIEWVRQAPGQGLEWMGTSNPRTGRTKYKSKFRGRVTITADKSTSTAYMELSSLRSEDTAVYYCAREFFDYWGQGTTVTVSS VL: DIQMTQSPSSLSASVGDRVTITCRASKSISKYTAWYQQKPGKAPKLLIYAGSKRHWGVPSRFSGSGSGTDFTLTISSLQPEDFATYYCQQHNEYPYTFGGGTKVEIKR"
result = "88.4%"

[[record]]
binder = "Mab 4A10-3 (antibody, human IgG4 S228P, kappa, F234A L235A, V domains shown) VH: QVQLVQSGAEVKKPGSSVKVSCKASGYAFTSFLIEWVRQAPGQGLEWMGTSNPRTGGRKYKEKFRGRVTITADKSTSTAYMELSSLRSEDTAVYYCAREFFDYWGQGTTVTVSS VL: DIQMTQSPSSLSASVGDRVTITCRASKSISKYTAWYQQKPGKAPKLLIYAGSKLHWGVPSRFSGSGSGTDFTLTISSLQPEDFATYYCQQHNEYPYTFGGGTKVEIKR"
result = "59.3%"

[[record]]
binder = "Mab 3D8 (antibody, human IgG4 S228P, kappa, F234A L235A, V domains shown, Humanized form of mouse 1G9 with human heavy chain framework VH1-69 and light chain framework O2; also called human 3D8) VH: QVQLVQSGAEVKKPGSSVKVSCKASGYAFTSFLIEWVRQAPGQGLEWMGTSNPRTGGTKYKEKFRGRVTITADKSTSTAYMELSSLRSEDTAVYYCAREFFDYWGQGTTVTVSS VL: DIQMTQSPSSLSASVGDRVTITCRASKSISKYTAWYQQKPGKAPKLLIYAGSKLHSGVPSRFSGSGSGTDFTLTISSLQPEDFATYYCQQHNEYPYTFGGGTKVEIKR"
result = "21.8%"

